# Protocol details: inhibitors of poly I:C-induced TLR3 signaling, primary screen, cell-based, poly I:C stimulus, luciferase, 10K MLSCN set (AID 602277)
# Conditions used: HEK293-TLR3 RL24 IRF3 luciferase reporter, at 10 µM, hits give high values
Note that class boundaries on inhibition are bottom = under 10%, middle = from 10% up to 20%, top = 20% and over

Some solved cases for reference:
Compound | Class label
COc1cccc(-c2cc(C(=O)N3CCc4ccccc4C3)no2)c1 | middle
COc1ccc(-n2c(=O)c3c4c(sc3n3c(C)nnc23)CCCC4)cc1 | middle
CC(=O)Nc1ccc(S(=O)(=O)NCc2cn3c(C)csc3n2)cc1 | bottom
O=C(Cn1c(=O)oc2ccccc21)Nc1ccc(S(=O)(=O)N2CCCCC2)cc1 | middle
CCOc1ccc(Nc2nc(Cc3nnc(SCC(N)=O)o3)cs2)cc1 | middle
COc1cc(NC2c3ccccc3C(=O)N2c2ccc(C)cn2)cc(OC)c1OC (centres undefined) | bottom

Enquiry: Categorize the following entry: "COc1ccc(S(=O)(=O)Nc2ccc(F)c(Cl)c2)cc1OC"
Return: top

Enquiry: And the next one, "Cc1ccccc1Cn1cc(/C=N/n2cnnc2)c2ccccc21" ?
Return: top

Enquiry: And the next one, "CCOC(=O)c1c(C)oc2c1c1c(c3ccccc32)OCN(Cc2cccnc2)C1" ?
Return: middle

----------
We begin with a simple list: items and their reported NADPH fluorescence slope.
# Target system: Voltage-gated potassium channel subunit beta-2 (Rattus norvegicus) (UniProt P62483)
# Sequence (P62483 whole entry, looked up): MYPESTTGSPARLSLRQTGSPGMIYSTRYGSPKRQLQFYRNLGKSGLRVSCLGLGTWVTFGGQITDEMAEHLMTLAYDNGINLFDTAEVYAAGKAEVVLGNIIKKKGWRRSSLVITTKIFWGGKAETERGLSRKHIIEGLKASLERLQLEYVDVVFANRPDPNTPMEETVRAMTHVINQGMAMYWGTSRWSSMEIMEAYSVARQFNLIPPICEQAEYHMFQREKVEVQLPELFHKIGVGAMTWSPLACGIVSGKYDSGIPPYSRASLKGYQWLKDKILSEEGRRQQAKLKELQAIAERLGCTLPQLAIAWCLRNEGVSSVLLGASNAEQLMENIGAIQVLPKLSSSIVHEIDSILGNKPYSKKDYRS
# Protocol details: KvBeta positive modulators, primary screen, biochemical, NADPH fluorescence (AID 623);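 also: fluorescence intensity change per second fitted from 20 to 320 s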
# Conditions used: Recombinant KvBeta, NADPH fluorescence decrease slope, 10 min; at 10 µM; hits give low values
Calls of active or inactive are those of the source.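 The calls were made as follows: active = NADPH fluorescence slope more negative than the mean of all samples by about 3 SD, 99.7% confidence; inactive = the rest.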

Some compounds with recorded NADPH fluorescence slope:
Compound | NADPH fluorescence slope
CC1Cc2ccccc2N1S(=O)(=O)c1ccc2c(c1)n(C)c(=O)c(=O)n2C (stereo unspecified) | 6.1e-06 (inactive)
CCc1ccc2[nH]c(=O)c(C(c3nnnn3CC3CCCO3)N3CCCc4ccccc43)cc2c1 (stereo unspecified) | -4.4e-05 (inactive)
O=C(OCN1C(=O)c2ccccc2C1=O)C1CCCCC1 | -5e-05 (inactive)

Enquiry: Value lookup for NADPH fluorescence slope; key = CC1=C(C(=O)NC2CCC(C)CC2)C2(CCC(C)CC2)OC1=O (stereo unspecified)
Return: 7.7e-06 (inactive)

Enquiry: And the next one, "COC(=O)CN(c1ccc(C)c(Cl)c1)S(C)(=O)=O" ?
Return: -4.6e-05 (inactive)

Enquiry: And the next one, "CCn1c(SCC(=O)c2ccc(F)cc2)nnc1-c1ccoc1C" ?
Return: 1.4e-05 (inactive)

----------
# Protocol details: inhibitors of Chlamydomonas gravitaxis, primary screen, whole organism, Chlamydomonas reinhardtii, WT vs cilia-less mutant, absorbance, 96-well (AID 463189);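 also: 0% = wild type cc124 cells in DMSO and 100% = ciliumless bld1 mutant cells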
# Conditions used: OD600 absorbance, 2 days, at 10 µM, hits give high values
Quantity measured: inhibition (%)
Give just the number in %; leave the unit off.

Enquiry: Value lookup for inhibition; key = CCC1(C)Cc2c(sc(NC(=O)CCC(=O)O)c2C#N)CO1 (centres undefined)
Return: -2.53

Enquiry: And the next one, "CCC(NC(=O)Nc1nccs1)(C(F)(F)F)C(F)(F)F" ?
Return: -12.6

Enquiry: And the next one, "Cn1ncc(N=Cc2c(O)ccc3ccccc23)c1C(=O)N1CCOCC1" ?
Return: 11.5

Enquiry: And the next one, "Nc1c(C(=O)NCc2ccco2)sc2nc(N3CCOCC3)c3c(c12)CCCC3" ?
Return: 7.67
